Recorded measurements of viability, one per entry
test: drug combination growth inhibition, ovarian cancer – cell-based, oncology-focused library, rucaparib conditional, profiling panel (AID 1508598); details: patient-derived ovarian cancer cells, CellTiter-Glo viability, 144 h; at 0.00488 µM; OCI-C5x cells; without rucaparib; stronger effect = lower value
Activity calls are given as the source filed them.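 The calls were made as follows: active = normalized viability below 100% at a tested concentration; inactive = the rest.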

Ask: For the molecule `CCOc1ccn(-c2ccc(F)cc2)c(=O)c1C(=O)Nc1ccc(Oc2ccnc(N)c2Cl)c(F)c1` , what viability is on record?
Result: 120% (inactive)

# next molecule below
Ask: For the molecule `CN1CCC(CNc2ccc3ncc(-c4cccc(OC(F)(F)F)c4)n3n2)CC1` , what viability is on record?
Result: 106% (inactive)

* * *

experiment: growth inhibition of DIPG cells – cell-based, MIPE5.0 library, qHTS (AID 1347068); conditions: SU-DIPG-XXV viability;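 as to IC50: cells exposed to compound for 48 hours before viability readout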
Inconclusive results are not listed. Active and inactive are the calls of the source. Cut-off not given; nearly all actives show IC50 up to about 30 µM.
Outcome field: choose from true (1) for active, false (0) for inactive

Worked examples follow.
Ask: Write down the call the test reported for this molecule. Item: `CC(C)(O)CC(=O)NCCn1ccc2ncnc(Nc3ccc(Oc4cccc(C(F)(F)F)c4)c(Cl)c3)c21`
Result: true (1)

Ask: Write down the call the test reported for this molecule. Item: `C[C@@H]1COCCN1c1cc(=O)n2c(n1)N(Cc1cncc(Cl)c1)[C@H](C(F)(F)F)CC2`
Result: false (0)

New cases:
Ask: Write down the call the test reported for this molecule. Item: `Nc1nc(Nc2ccc(S(N)(=O)=O)cc2)nn1C(=O)c1c(F)cccc1F`
Result: true (1)

Ask: Write down the call the test reported for this molecule. Item: `NC[C@H]1O[C@H](O[C@@H]2[C@H](O)[C@@H](O[C@H]3O[C@H](CO)[C@@H](O)[C@H](N)[C@H]3O)[C@H](N)C[C@@H]2N)[C@H](O)[C@@H](O)[C@@H]1O`
Result: false (0)

Ask: Write down the call the test reported for this molecule. Item: `Cc1ccc(NC(=O)Nc2nnc(Sc3ncnc4cc(OCCCN5CCOCC5)ccc34)s2)cc1`
Result: false (0)

* * *

test: growth inhibition of DIPG cells – cell-based, MIPE4.0 library, CellTiter-Glo luminescence, qHTS (AID 1347066); settings: SU-DIPG-VI viability, CellTiter-Glo ATP luminescence;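 also: cells exposed to compound for 48 hours before readout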
Results filed as inconclusive are left out. The source made the active and inactive calls. No cut-off is given here; in the data, nearly all actives have AC50 up to about 30 µM.
Measure: AC50

Example entries and their recorded answers appear below.
Ask: For the molecule `COc1cc(Cl)cn2c(-c3cccc(NC4CNC4)n3)cnc12` , what AC50 is on record?
Result: inactive

Ask: For the molecule `O=c1cc(-c2ccc(O)c(O)c2)oc2cc(O)cc(O)c12` , what AC50 is on record?
Result: inactive

Ask: For the molecule `NC(=O)c1nnn(Cc2cc(Cl)c(C(=O)c3ccc(Cl)cc3)c(Cl)c2)c1N` , what AC50 is on record?
Result: 18.7 µM (active)

Ask: For the molecule Cc1nnc(C(C)C)n1C1C[C@H]2CC[C@@H](C1)N2CC[C@H](NC(=O)C1CCC(F)(F)CC1)c1ccccc1 (stereo partly drawn) , what AC50 is on record?
Result: inactive

Ask: For the molecule `COc1ccc(-c2ccc3ncc4c(c3c2)n(-c2ccc(N3CCNCC3)c(C(F)(F)F)c2)c(=O)n4C)cn1` , what AC50 is on record?
Result: 0.187 µM (active)

New cases:
Ask: For the molecule `C[C@H](O)[C@@H]1C(=O)N2C(C(=O)O)=C(S[C@@H]3CN[C@H](CNS(N)(=O)=O)C3)[C@@H](C)[C@@H]12` , what AC50 is on record?
Result: inactive

Ask: For the molecule `CN(C)CC(=O)N1CCC(c2ccc(NC(=O)c3ncc(C#N)[nH]3)c(C3=CCCCC3)c2)CC1` , what AC50 is on record?
Result: 18.7 µM (active)

* * *

test: growth inhibition, single agents and combos, ICB984, cell-based, cisplatin or BGB combos, synergistic combos for chromothripsis tumors (AID 1671451); conditions: ICB984 medulloblastoma cells, drug combinations, cisplatin combo, at 5 µM, stronger effect = higher value;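 also: cells exposed for 96 hours before readout; 0% = vehicle DMSO and 100% = killing by high DMSO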
Measure: inhibition (%)
I only need the number, in %, no unit after it.

Example entries and their recorded answers appear below.
Ask: For the compound NC1CCC(N[C@@H]2C[C@H]2c2ccccc2)CC1 (some centres not stated) , what inhibition is on record?
Result: -29.9

Ask: For the compound `CN(C)CCN1C(=O)c2cccc3cc(N)cc(c23)C1=O` , what inhibition is on record?
Result: -25.7

Ask: For the compound `c1cc(Nc2cc(C3CC3)[nH]n2)nc(Nc2ccc3nc[nH]c3c2)n1` , what inhibition is on record?
Result: -12.8

Ask: For the compound `C[C@]12CCCN1CC1=NNC(=O)c3cc(F)cc4[nH]c2c1c34` , what inhibition is on record?
Result: -0.499

New cases:
Ask: For the compound `Nc1ccccc1NC(=O)c1ccc(CNc2nccc(-c3cccnc3)n2)cc1` , what inhibition is on record?
Result: -7.7

Ask: For the compound `COc1cc2ncnc(-n3nc(-c4ccccn4)nc3N)c2cc1OC` , what inhibition is on record?
Result: -33.3

Ask: For the compound `O=C(/C=C/c1ccc(CN(CCO)CCc2c[nH]c3ccccc23)cc1)NO` , what inhibition is on record?
Result: -4.27

Ask: For the compound `O=C(COc1cccc2c(=O)[nH]ccc12)c1ccccc1` , what inhibition is on record?
Result: -29.1

Ask: For the compound `Cc1ccc([N+](=O)[O-])cc1S(=O)(=O)N(C)/N=C/c1cnc2ccc(Br)cn12` , what inhibition is on record?
Result: -58

Ask: For the compound `Nc1nc2n[nH]nc2c(=O)[nH]1` , what inhibition is on record?
Result: -42

Ask: For the compound `C=C1[C@H](CO)[C@@H](O)C[C@@H]1n1cnc2c(=O)[nH]c(N)nc21` , what inhibition is on record?
Result: -2.87

Ask: For the compound `O=c1[nH]c([C@@H]2CCCN2)nc2c1oc1ccc(Cl)cc12` , what inhibition is on record?
Result: 4.34

* * *

assay: drug combination growth inhibition, ovarian cancer – cell-based, oncology-focused library, rucaparib conditional, profiling panel (AID 1508598); conditions: patient-derived ovarian cancer cells, CellTiter-Glo viability, 144 h; at 0.0195 µM; OCI-P5x cells; with rucaparib 20 µM; stronger effect = lower value; 100% = cells with rucaparib alone
Recorded measurements of viability, one per entry
I only need the number, in %, no unit after it.

Example entries and their recorded answers appear below.
Ask: For the compound `OCCn1cc(-c2cnc3nnn(Cc4ccc5ncccc5c4)c3n2)cn1` , what viability is on record?
Result: 102

Ask: For the compound COc1ccc(COc2cc3oc(=O)c4cc(C(C)O)ccc4c3cc2OC)cc1 (stereo not given) , what viability is on record?
Result: 99.9

Ask: For the compound `N#CCNC(=O)c1ccc(-c2ccnc(Nc3ccc(N4CCOCC4)cc3)n2)cc1` , what viability is on record?
Result: 103

Ask: For the compound `CN1CCN(CCOc2cc(OC3CCOCC3)c3c(Nc4c(Cl)ccc5c4OCO5)ncnc3c2)CC1` , what viability is on record?
Result: 96.6

# next compound below
Ask: For the compound `CC1(COc2ccc3c(c2)ncn3-c2ccc3cccc(N4CCC(N)CC4)c3n2)COC1` , what viability is on record?
Result: 119

* * *

Recorded measurements of cell count, one per entry
assay: viability loss with induced miR-34 in A549 – imaging, A549 dox-inducible miR-34, nuclei and caspase counts, primary screen (AID 1347080); conditions: A549 miR-34 inducible, Hoechst nuclei count, 48 h; measured here: total cells without miR-34 induction

Ask: For the compound `N[C@@H](C(=O)O)c1ccc(C(=O)O)c(C(=O)O)c1` , what cell count is on record?
Result: 9410

Ask: For the compound `CCCCCCCOC(=O)Cc1c(C)n(C(=O)c2ccc(Cl)cc2)c2ccc(OC)cc12` , what cell count is on record?
Result: 6490

Ask: For the compound `CCCCCCCCCCCCCCCCOC[C@H](COP(=O)([O-])OCC[N+](C)(C)C)SC(=O)CCCCCC` , what cell count is on record?
Result: 5950

New cases:
Ask: For the compound `[O-]/[N+](=N/O[C@@H]1O[C@H](CO)[C@H](O)[C@H](O)[C@H]1O)N1CCCC1` , what cell count is on record?
Result: 7260

Ask: For the compound `CCCCc1ccc(N=CNO)c(C)c1` , what cell count is on record?
Result: 5950

Ask: For the compound `CCCc1c(OCCCOc2ccc(OCC(=O)O)cc2)ccc(C(C)=O)c1O` , what cell count is on record?
Result: 9930
